# Test system: GAMG (Glioblastoma)
# method notes: combination Emax (second highest fraction inhibited in the dose matrix, 72 h); higher = more inhibition; extreme values may be limits of the assay
recorded endpoint: combination Emax
Simply state the number, no unit and no words.

Query: Which value of combination Emax has been reported for COc1cc2c(cc1OCCCCCOc1cc3c(cc1OC)C(=O)N1C=C(C)C[C@H]1C=N3)N=C[C@@H]1CC(C)=CN1C2=O [SG3199] + O=C(c1cc(Cc2n[nH]c(=O)c3ccccc23)ccc1F)N1CCN(C(=O)C2CC2)CC1 [Olaparib] (first compound max 0.001 µM, 7x7, partner max 10 µM) in the records?
Reply: 0.104

Query: Which value of combination Emax has been reported for N#Cc1cnc(Nc2cc(NC[C@H]3CNCCO3)c(C(F)(F)F)cn2)cn1 [SRA737] + C=CCn1c(=O)c2cnc(Nc3ccc(N4CCN(C)CC4)cc3)nc2n1-c1cccc(C(C)(C)O)n1 [AZD1775] (first compound max 10 µM, partner max 1 µM) in the records?
Reply: 0.726
